These data points were gathered from the supplement of paper PMC11061612.

- Tested on: SK-OV-3 (Ovarian Carcinoma)
- METHOD_NOTES: combination Emax (second highest fraction inhibited in the dose matrix, 72 h); higher = more inhibition; extreme values may be limits of the assay
Parameter combination Emax: see the listing below.
Keep the answer to the number alone.

CCN(CCO)CCCOc1ccc2c(Nc3cc(CC(=O)Nc4cccc(F)c4)[nH]n3)ncnc2c1 [AZD2811] + O=C(c1cc(Cc2n[nH]c(=O)c3ccccc23)ccc1F)N1CCN(C(=O)C2CC2)CC1 [Olaparib] (first compound max 1 µM, 7x7, partner max 10 µM) | 0.226
CN(C)CCCOc1ccc(-c2ccc3ncc4c(c3c2)n(C2CCOCC2)c(=O)n4C)cn1 [AZD0156] + O=C(c1cc(Cc2n[nH]c(=O)c3ccccc23)ccc1F)N1CCN(C(=O)C2CC2)CC1 [Olaparib] (first compound max 3 µM, partner max 3 µM) | 0.228
C=CCn1c(=O)c2cnc(Nc3ccc(N4CCN(C)CC4)cc3)nc2n1-c1cccc(C(C)(C)O)n1 [AZD1775] + C1CN(CCC1(C(=O)N[C@@H](CCO)C2=CC=C(C=C2)Cl)N)C3=NC=NC4=C3C=CN4 [Capivasertib] (first compound max 3 µM, partner max 3 µM) | 0.581

-- ask API: value(readout= combination Emax, system= SK-OV-3 (Ovarian Carcinoma), query= COc1cccc(OCCCN)c1-c1cc(Nc2cnc(C#N)cn2)n[nH]1 [Prexasertib] + C[C@@H]1COCCN1C2=NC(=NC(=C2)C3(CC3)[S@](=N)(=O)C)C4=C5C=CNC5=NC=C4 [AZD6738] (first compound max 1 µM, 7x7, partner max 10 µM) )
-- reply 0.806

-- ask Lab request: please report combination Emax under test system SK-OV-3 (Ovarian Carcinoma) for Cc1c2c(nn1C)CSCc1cc(n(C)n1)CSc1cc(c3ccccc3c1)OCCCc1c(C(=O)O)n(C)c3c-2c(Cl)ccc13 [AZD5991] + C=CCn1c(=O)c2cnc(Nc3ccc(N4CCN(C)CC4)cc3)nc2n1-c1cccc(C(C)(C)O)n1 [AZD1775] (first compound max 1 µM, partner max 1 µM)
-- reply 0.597

-- ask Please provide the recorded combination Emax for Cn1cnc2c(F)c(Nc3ccc(Br)cc3Cl)c(C(=O)NOCCO)cc21 [Selumetinib] + C=CCn1c(=O)c2cnc(Nc3ccc(N4CCN(C)CC4)cc3)nc2n1-c1cccc(C(C)(C)O)n1 [AZD1775] (first compound max 10 µM, partner max 1 µM) , tested on SK-OV-3 (Ovarian Carcinoma).
-- reply 0.365

-- ask Requested read-out combination Emax, target or system SK-OV-3 (Ovarian Carcinoma), entry C=CCn1c(=O)c2cnc(Nc3ccc(N4CCN(C)CC4)cc3)nc2n1-c1cccc(C(C)(C)O)n1 [AZD1775] + C[C@@H]1COCCN1C2=NC(=NC(=C2)C3(CC3)[S@](=N)(=O)C)C4=C5C=CNC5=NC=C4 [AZD6738] (first compound max 1 µM, partner max 10 µM)
-- reply 0.755

---

- Test system: 8305C (Thyroid Gland Carcinoma)
- METHOD_NOTES: combination Emax (second highest fraction inhibited in the dose matrix, 72 h); higher = more inhibition; extreme values may be limits of the assay
Below, each entry is listed with its recorded combination Emax.

A selection of reference data follows.
COc1nnc2ccc(N3CCC(c4ccc(OCCN5CCN(C)C(=O)[C@H]5C)cc4)CC3)nn12 [AZD5153] + CC1(C)CCC(CN2CCN(c3ccc(C(=O)NS(=O)(=O)c4ccc(NCC5CCOCC5)c([N+](=O)[O-])c4)c(Oc4cnc5[nH]ccc5c4)c3)CC2)=C(c2ccc(Cl)cc2)C1 [Venetoclax] (first compound max 1 µM, 7x7, partner max 1 µM) | 0.524
CC1(C)CCC(CN2CCN(c3ccc(C(=O)NS(=O)(=O)c4ccc(NCC5CCOCC5)c([N+](=O)[O-])c4)c(Oc4cnc5[nH]ccc5c4)c3)CC2)=C(c2ccc(Cl)cc2)C1 [Venetoclax] + C[C@@H]1COCCN1C2=NC(=NC(=C2)C3(CC3)[S@](=N)(=O)C)C4=C5C=CNC5=NC=C4 [AZD6738] (first compound max 1 µM, 7x7, partner max 10 µM) | 0.681
N#Cc1cnc(Nc2cc(NC[C@H]3CNCCO3)c(C(F)(F)F)cn2)cn1 [SRA737] + Nc1ccn([C@@H]2O[C@H](CO)[C@@H](O)C2(F)F)c(=O)n1 [Gemcitabine] (first compound max 10 µM, 7x7, partner max 0.3 µM) | 0.679

-- ask If you can, please state the reported combination Emax value of COc1cccc(OCCCN)c1-c1cc(Nc2cnc(C#N)cn2)n[nH]1 [Prexasertib] + CCc1c2c(nc3ccc(O)cc13)-c1cc3c(c(=O)n1C2)COC(=O)[C@]3(O)CC [SN-38] (first compound max 1 µM, 7x7, partner max 0.3 µM) .
-- reply 0.823

-- ask What combination Emax value was documented for this molecule, CN(C)CCCOc1ccc(-c2ccc3ncc4c(c3c2)n(C2CCOCC2)c(=O)n4C)cn1 [AZD0156] + O=C(c1cc(Cc2n[nH]c(=O)c3ccccc23)ccc1F)N1CCN(C(=O)C2CC2)CC1 [Olaparib] (first compound max 3 µM, partner max 3 µM) ?
-- reply 0.441

-- ask Item Cc1c2c(nn1C)CSCc1cc(n(C)n1)CSc1cc(c3ccccc3c1)OCCCc1c(C(=O)O)n(C)c3c-2c(Cl)ccc13 [AZD5991] + CCN(CCO)CCCOc1ccc2c(Nc3cc(CC(=O)Nc4cccc(F)c4)[nH]n3)ncnc2c1 [AZD2811] (first compound max 1 µM, 7x7, partner max 1 µM) has what recorded combination Emax?
-- reply 0.365

-- ask Fill in: combination Emax of Cc1c2c(nn1C)CSCc1cc(n(C)n1)CSc1cc(c3ccccc3c1)OCCCc1c(C(=O)O)n(C)c3c-2c(Cl)ccc13 [AZD5991] + CC1(C)CCC(CN2CCN(c3ccc(C(=O)NS(=O)(=O)c4ccc(NCC5CCOCC5)c([N+](=O)[O-])c4)c(Oc4cnc5[nH]ccc5c4)c3)CC2)=C(c2ccc(Cl)cc2)C1 [Venetoclax] (first compound max 1 µM, 7x7, partner max 1 µM) is ___
-- reply 0.379
